Cited source: paper PMC4674680

biological target: T1, 6His–PAK4cat (PAK4 286–591) (human, UniProt O96013 286-591); assay: kinase inhibition assay; 50 nM purified PAK4cat, 10 μM GST-Raf1S338 peptide, 10 μM ATP (γ32P), 25 mM HEPES pH 7.3, 50 mM KCl, 10 mM MgCl2, 30 °C, 20 min; inhibitor pre-incubated with the kinase on ice 10 min; values from the intercepts of the inhibition graphs; settings: both partners purified
T1 construct: human PAK4 catalytic domain, residues 286–591, in pSY5 (His tagged); Residues 297–589 are seen in PDB 4XBU; also called purified PAK4; source: E. coli BL21-CodonPlus(DE3), purified (Ni-NTA; semi-automated Akta system for crystallization)
T1 sequence (O96013 286-591): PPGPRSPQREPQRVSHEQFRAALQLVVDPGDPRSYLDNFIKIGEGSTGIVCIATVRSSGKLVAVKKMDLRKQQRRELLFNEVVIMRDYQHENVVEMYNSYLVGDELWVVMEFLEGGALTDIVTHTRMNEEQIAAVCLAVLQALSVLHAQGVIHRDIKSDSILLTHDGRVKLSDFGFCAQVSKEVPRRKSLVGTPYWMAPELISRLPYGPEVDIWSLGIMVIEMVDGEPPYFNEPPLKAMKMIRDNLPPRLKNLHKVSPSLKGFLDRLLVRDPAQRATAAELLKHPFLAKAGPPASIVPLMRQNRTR
quantity_name: Ki (nM)
Note: unit nM is implicit; provide only the numeric part.

// Ki value for EAEDWTAALLNRGRSRQPLVLGDNCFADLVHNWMELPE (domain or fragment, GST carrier left out. Limits 166-203 are the paper's, taken from the 4XBR fusion: Flag/SGS 1-12, iBox 13-50, EF linker 51-52, PAK4 278-591 from 53 (12+38+2+314=366). Entity position = paper number …) [GST-iBox (Inka1 166–203)] : 30
